// reported % engagement NSUN3_C298 per item
Target: NSUN3_C298 (Homo sapiens)
Construct: endogenous in cells; host or cells: 22Rv1
Sequence (Q9H649 1-340): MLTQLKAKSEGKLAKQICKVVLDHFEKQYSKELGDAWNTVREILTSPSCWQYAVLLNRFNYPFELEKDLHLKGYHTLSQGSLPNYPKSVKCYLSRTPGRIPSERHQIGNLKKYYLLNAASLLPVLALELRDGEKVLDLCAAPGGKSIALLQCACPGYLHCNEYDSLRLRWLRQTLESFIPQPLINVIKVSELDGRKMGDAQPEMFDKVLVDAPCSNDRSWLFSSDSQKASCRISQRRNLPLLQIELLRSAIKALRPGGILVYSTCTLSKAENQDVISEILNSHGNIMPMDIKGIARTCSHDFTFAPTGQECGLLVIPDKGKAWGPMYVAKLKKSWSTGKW
Assay: IA-DTB cysteine engagement
Type: binding
Settings: 22Rv1 cells, 20 μM probe, 1 h, relative to DMSO
Procedure: Sample preparation: Cells (adherent: 15 cm dishes, suspension: 2 million cells/mL) were treated with electrophilic probes in situ for indicated times and concentrations, washed with ice-cold PBS, and flash frozen in liquid nitrogen. […] Whole cell lysates protein content was measured using a standard DC protein assay (Bio-Rad) and 500 μL (2 mg/mL protein content) were treated with 5 μL of 10 mM 1A-DTB (in DMSO) for 1 h at ambient temperature with occasional vortexing. […]
The reply should be a number in %, with the unit left off.

Below are worked cases with known answers.
C=CC(=O)N1C[C@H](c2ccc(Br)cc2)[C@@H]1C(=O)Nc1cccc2cccnc12
55.5
C=CC(=O)N1C[C@H](c2ccc(Br)cc2)[C@H]1C(=O)Nc1cccc2cccnc12 [MY-3A]
38
C=CC(=O)N1C[C@@H](c2ccc(Br)cc2)[C@H]1C(=O)Nc1cccc2cccnc12
35.5

Here is another molecule to look at.
Entry C=CC(=O)N1C[C@H](c2ccc(Br)cc2)[C@H]1C(=O)Nc1cccc2cccnc12 [MY-3B] , % engagement NSUN3_C298 reported as 83

###

target: MGST3_C56 (Homo sapiens, UniProt O14880); construct: endogenous in cells; host or cells: 22Rv1; assay: IA-DTB cysteine engagement; format: binding; conditions: 22Rv1 cells, 20 μM probe, 1 h, relative to DMSO
Sequence (O14880 whole entry): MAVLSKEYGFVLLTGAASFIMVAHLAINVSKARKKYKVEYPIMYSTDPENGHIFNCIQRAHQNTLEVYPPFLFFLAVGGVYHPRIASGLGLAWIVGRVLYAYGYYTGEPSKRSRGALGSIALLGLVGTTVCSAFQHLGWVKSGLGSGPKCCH
Recorded % engagement MGST3_C56 by entry
Only the number, expressed in %, is required.

C=CC(=O)N1C[C@H](c2ccc(Br)cc2)[C@@H]1C(=O)Nc1cccc2cccnc12
58
C=CC(=O)N1C[C@H](c2ccc(Br)cc2)[C@H]1C(=O)Nc1cccc2cccnc12 [MY-3B]
73.5
C=CC(=O)N1C[C@@H](c2ccc(Br)cc2)[C@H]1C(=O)Nc1cccc2cccnc12
58.75

# % engagement MGST3_C56 of C=CC(=O)N1C[C@H](c2ccc(Br)cc2)[C@H]1C(=O)Nc1cccc2cccnc12 [MY-3A] = 63.5

###

Biological target: STK11_C418 (Homo sapiens)
Construct: endogenous in cells; host or cells: 22Rv1
Sequence (Q15831 1-433): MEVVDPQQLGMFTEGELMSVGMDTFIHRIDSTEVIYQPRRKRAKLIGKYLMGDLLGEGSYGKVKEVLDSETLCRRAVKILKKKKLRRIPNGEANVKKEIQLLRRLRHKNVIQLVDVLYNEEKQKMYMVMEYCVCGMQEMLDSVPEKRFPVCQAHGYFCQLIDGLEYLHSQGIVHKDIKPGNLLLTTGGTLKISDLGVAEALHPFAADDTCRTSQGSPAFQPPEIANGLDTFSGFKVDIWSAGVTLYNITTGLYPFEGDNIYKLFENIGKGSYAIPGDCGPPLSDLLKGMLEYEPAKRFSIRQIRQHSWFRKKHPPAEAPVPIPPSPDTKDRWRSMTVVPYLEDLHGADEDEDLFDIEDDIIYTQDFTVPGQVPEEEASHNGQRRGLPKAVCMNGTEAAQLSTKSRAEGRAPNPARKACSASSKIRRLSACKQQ
Assay: IA-DTB cysteine engagement
Assay type: binding
Details: 22Rv1 cells, 20 μM probe, 1 h, relative to DMSO
Experimental: Sample preparation: Cells (adherent: 15 cm dishes, suspension: 2 million cells/mL) were treated with electrophilic probes in situ for indicated times and concentrations, washed with ice-cold PBS, and flash frozen in liquid nitrogen. […] Whole cell lysates protein content was measured using a standard DC protein assay (Bio-Rad) and 500 μL (2 mg/mL protein content) were treated with 5 μL of 10 mM 1A-DTB (in DMSO) for 1 h at ambient temperature with occasional vortexing. […]
In this section, each of the molecules is paired with its reported % engagement STK11_C418.
Note: unit % is implicit; provide only the numeric part.

C=CC(=O)N1C[C@@H](c2ccc(Br)cc2)[C@H]1C(=O)Nc1cccc2cccnc12
83.5
C=CC(=O)N1C[C@H](c2ccc(Br)cc2)[C@H]1C(=O)Nc1cccc2cccnc12 [MY-3A]
38

Considering `C=CC(=O)N1C[C@H](c2ccc(Br)cc2)[C@@H]1C(=O)Nc1cccc2cccnc12` , its % engagement STK11_C418 with STK11_C418 (Homo sapiens) was recorded as 66.5

Record C=CC(=O)N1C[C@H](c2ccc(Br)cc2)[C@H]1C(=O)Nc1cccc2cccnc12 [MY-3B] has STK11_C418 (Homo sapiens) % engagement STK11_C418 equal to 61.5

###

target: IFT43_C58 (Homo sapiens, UniProt Q96FT9); construct: endogenous in cells; host or cells: 22Rv1; experiment: IA-DTB cysteine engagement; assay type: binding; conditions: 22Rv1 cells, 20 μM probe, 1 h, relative to DMSO
Sequence (Q96FT9 whole entry): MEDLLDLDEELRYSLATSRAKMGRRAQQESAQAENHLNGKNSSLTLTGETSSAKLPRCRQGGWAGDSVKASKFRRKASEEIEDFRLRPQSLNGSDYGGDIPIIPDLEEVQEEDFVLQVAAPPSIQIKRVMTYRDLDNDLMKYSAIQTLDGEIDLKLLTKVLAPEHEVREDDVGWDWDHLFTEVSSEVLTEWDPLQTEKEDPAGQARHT
% engagement IFT43_C58 by entry:
Kindly provide the numeric value in % only, without the unit symbol.

C=CC(=O)N1C[C@@H](c2ccc(Br)cc2)[C@H]1C(=O)Nc1cccc2cccnc12
28.5
C=CC(=O)N1C[C@H](c2ccc(Br)cc2)[C@H]1C(=O)Nc1cccc2cccnc12 [MY-3A]
17
C=CC(=O)N1C[C@H](c2ccc(Br)cc2)[C@@H]1C(=O)Nc1cccc2cccnc12
−17

Then this molecule:
Lab note: C=CC(=O)N1C[C@H](c2ccc(Br)cc2)[C@H]1C(=O)Nc1cccc2cccnc12 [MY-3B] gave % engagement IFT43_C58 of 71.5

###

target: PRXL2A_C85 (Homo sapiens, UniProt Q9BRX8); construct: endogenous in cells; host or cells: 22Rv1; assay: IA-DTB cysteine engagement; type: binding; details: 22Rv1 cells, 20 μM probe, 1 h, relative to DMSO
Sequence (Q9BRX8 whole entry): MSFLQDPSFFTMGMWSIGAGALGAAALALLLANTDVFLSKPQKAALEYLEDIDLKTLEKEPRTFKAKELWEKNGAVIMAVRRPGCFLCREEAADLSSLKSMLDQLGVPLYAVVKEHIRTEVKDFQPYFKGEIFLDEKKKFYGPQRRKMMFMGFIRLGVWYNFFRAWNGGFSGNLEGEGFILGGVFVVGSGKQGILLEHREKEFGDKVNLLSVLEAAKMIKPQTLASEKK
Here the recorded % engagement PRXL2A_C85 is given for each entry.

Look over these answered cases.
C=CC(=O)N1C[C@H](c2ccc(Br)cc2)[C@@H]1C(=O)Nc1cccc2cccnc12
98.75%
C=CC(=O)N1C[C@H](c2ccc(Br)cc2)[C@H]1C(=O)Nc1cccc2cccnc12 [MY-3A]
97.5%
C=CC(=O)N1C[C@H](c2ccc(Br)cc2)[C@H]1C(=O)Nc1cccc2cccnc12 [MY-3B]
98.5%

Kindly consider the entry below.
# % engagement PRXL2A_C85 (compound: `C=CC(=O)N1C[C@@H](c2ccc(Br)cc2)[C@H]1C(=O)Nc1cccc2cccnc12` ) is 92.5%

###

Molecular target: SNX11_C181 (Homo sapiens, UniProt Q9Y5W9)
Construct: endogenous in cells; host or cells: 22Rv1
Sequence (Q9Y5W9 1-270): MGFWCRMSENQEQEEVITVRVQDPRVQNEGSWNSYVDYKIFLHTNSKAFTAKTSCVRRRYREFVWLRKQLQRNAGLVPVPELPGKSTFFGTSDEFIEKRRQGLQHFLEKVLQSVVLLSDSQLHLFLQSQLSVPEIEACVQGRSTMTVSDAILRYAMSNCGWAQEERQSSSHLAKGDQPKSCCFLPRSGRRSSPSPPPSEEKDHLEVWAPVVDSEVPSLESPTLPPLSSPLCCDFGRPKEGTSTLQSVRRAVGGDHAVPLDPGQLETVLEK
Experiment: IA-DTB cysteine engagement
Type: binding
Conditions: 22Rv1 cells, 20 μM probe, 1 h, relative to DMSO
Assay metric: % engagement SNX11_C181 (%)
Write the value in % as a bare number.

Recorded % engagement SNX11_C181, per entry:
C=CC(=O)N1C[C@@H](c2ccc(Br)cc2)[C@H]1C(=O)Nc1cccc2cccnc12
54.5
C=CC(=O)N1C[C@H](c2ccc(Br)cc2)[C@H]1C(=O)Nc1cccc2cccnc12 [MY-3B]
23
C=CC(=O)N1C[C@H](c2ccc(Br)cc2)[C@H]1C(=O)Nc1cccc2cccnc12 [MY-3A]
17

Lab book: % engagement SNX11_C181 of `C=CC(=O)N1C[C@H](c2ccc(Br)cc2)[C@@H]1C(=O)Nc1cccc2cccnc12` noted as 68.5

###

molecular target: COX6B1_C54 (Homo sapiens, UniProt P14854); construct: endogenous in cells; host or cells: 22Rv1; test: IA-DTB cysteine engagement; assay type: binding; conditions: 22Rv1 cells, 20 μM probe, 1 h, relative to DMSO
Sequence (P14854 whole entry): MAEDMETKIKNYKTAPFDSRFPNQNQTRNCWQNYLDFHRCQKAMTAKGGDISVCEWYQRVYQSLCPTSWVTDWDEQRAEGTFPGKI
Entries and their measured % engagement COX6B1_C54 follow.

Some solved entries appear below for comparison.
C=CC(=O)N1C[C@@H](c2ccc(Br)cc2)[C@H]1C(=O)Nc1cccc2cccnc12 [MY-1A]
66.5%
C=CC(=O)N1C[C@H](c2ccc(Br)cc2)[C@H]1C(=O)Nc1cccc2cccnc12 [MY-3B]
36.5%
C=CC(=O)N1C[C@H](c2ccc(Br)cc2)[C@H]1C(=O)Nc1cccc2cccnc12 [MY-3A]
33.5%

Then this compound:
// % engagement COX6B1_C54 value for C=CC(=O)N1C[C@H](c2ccc(Br)cc2)[C@@H]1C(=O)Nc1cccc2cccnc12 [MY-1B] : 56%
